Measured values drawn from patent US7977322B2 for this set.

Target: ΔF508-CFTR (Homo sapiens, UniProt P13569, DEL508-508)
Construct: expressed in transfected cells
Sequence (P13569 with tags, fused parts or gaps DEL508-508): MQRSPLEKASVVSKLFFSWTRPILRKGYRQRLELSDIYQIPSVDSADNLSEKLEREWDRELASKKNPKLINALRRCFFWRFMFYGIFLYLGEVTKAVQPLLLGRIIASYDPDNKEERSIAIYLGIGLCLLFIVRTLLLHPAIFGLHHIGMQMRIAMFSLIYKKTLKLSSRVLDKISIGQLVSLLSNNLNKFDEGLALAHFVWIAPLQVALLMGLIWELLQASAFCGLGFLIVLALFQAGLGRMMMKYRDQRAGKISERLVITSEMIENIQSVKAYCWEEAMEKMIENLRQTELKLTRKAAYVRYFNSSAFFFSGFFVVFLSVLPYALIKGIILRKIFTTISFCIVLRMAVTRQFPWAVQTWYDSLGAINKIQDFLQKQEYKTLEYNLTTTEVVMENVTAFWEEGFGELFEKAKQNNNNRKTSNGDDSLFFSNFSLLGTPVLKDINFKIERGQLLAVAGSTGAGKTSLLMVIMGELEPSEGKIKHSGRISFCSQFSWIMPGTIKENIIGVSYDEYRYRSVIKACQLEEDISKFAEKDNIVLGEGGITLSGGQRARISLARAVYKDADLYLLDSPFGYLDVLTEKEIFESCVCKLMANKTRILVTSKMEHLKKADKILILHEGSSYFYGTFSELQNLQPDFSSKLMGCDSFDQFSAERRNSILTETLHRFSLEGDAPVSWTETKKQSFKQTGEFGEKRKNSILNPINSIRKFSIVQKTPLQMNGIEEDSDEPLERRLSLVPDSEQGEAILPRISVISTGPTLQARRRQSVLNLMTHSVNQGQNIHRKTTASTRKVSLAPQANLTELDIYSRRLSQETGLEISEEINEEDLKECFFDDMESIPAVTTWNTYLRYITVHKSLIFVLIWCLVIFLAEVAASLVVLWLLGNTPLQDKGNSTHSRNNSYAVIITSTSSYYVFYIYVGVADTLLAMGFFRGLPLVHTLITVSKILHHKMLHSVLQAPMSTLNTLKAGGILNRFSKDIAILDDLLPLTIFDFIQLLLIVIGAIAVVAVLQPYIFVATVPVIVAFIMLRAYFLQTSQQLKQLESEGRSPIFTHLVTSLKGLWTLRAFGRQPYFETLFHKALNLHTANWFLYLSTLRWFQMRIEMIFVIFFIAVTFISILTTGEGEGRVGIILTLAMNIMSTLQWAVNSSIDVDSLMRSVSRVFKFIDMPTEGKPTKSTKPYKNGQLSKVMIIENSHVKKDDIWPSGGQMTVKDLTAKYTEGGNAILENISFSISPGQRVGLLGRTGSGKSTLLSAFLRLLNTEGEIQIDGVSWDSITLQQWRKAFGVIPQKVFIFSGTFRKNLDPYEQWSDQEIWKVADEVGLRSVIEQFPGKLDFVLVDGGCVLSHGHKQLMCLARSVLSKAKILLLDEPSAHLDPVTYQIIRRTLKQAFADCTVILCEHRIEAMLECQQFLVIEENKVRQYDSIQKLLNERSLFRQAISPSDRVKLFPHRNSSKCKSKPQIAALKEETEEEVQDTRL
Experiment: Membrane potential optical (FRET/VIPR) assay, identification of correction compounds
Type: cell-based
Conditions: Table 3; assay not given; read-out: % Activity / % Efficacy (relative efficacy)
Reported Emax values follow for various compounds

O=C(Nc1ncc(C(c2ccc(Cl)cc2)N2CC[C@@H](O)C2)s1)C1(c2ccc3c(c2)OCO3)CC1 (stereo partly drawn)	> 100%
NC(c1cnc(NC(=O)C2(c3ccc4c(c3)OCO4)CC2)s1)c1ccccc1Cl (stereo not drawn)	25 to 100%
CS(=O)(=O)c1ccc(C(c2cnc(NC(=O)C3(c4ccc5c(c4)OCO5)CC3)s2)N2CC[C@@H](O)C2)cc1 (stereo partly drawn)	25 to 100%
O=C(Nc1ncc(C(Cc2ccccc2Cl)N2CCCCC2)s1)C1(c2ccc3c(c2)OCO3)CC1 (stereo not drawn)	> 100%
O=C(Nc1ncc(Cc2ccccc2Cl)s1)C1(c2ccccc2F)CCCCC1	> 100%

[in] Requested read-out: Emax. Entry: CN(C)C(c1ccc(S(C)(=O)=O)cc1)c1cnc(NC(=O)C2(c3ccc4c(c3)OCO4)CC2)s1 (stereo not drawn)
[out] 25 to 100%

[in] Requested read-out: Emax. Entry: Cc1ccccc1C(c1cnc(NC(=O)C2(c3ccc4c(c3)OCO4)CC2)s1)N1CC[C@@H](O)C1 (stereo partly drawn)
[out] > 100%

[in] Requested read-out: Emax. Entry: CC(C)(C)CCNC(c1cnc(NC(=O)C2(c3ccc4c(c3)OCO4)CC2)s1)c1ccccc1Cl (stereo not drawn)
[out] > 100%

[in] Requested read-out: Emax. Entry: COCCNC(c1cnc(NC(=O)C2(c3ccc4c(c3)OCO4)CC2)s1)c1ccccc1Cl (stereo not drawn)
[out] > 100%

[in] Requested read-out: Emax. Entry: O=C(Nc1ncc(C(c2ccccc2Cl)N2CC[C@@H](O)C2)s1)C1(c2cccc(Cl)c2)CC1 (stereo partly drawn)
[out] > 100%

[in] Requested read-out: Emax. Entry: CCC(c1ccccc1)c1nnc(NC(=O)C2(c3ccc4c(c3)OCO4)CC2)s1 (stereo not drawn)
[out] > 100%

[in] Requested read-out: Emax. Entry: CS(=O)(=O)c1ccc(C(c2cnc(NC(=O)C3(c4ccc5c(c4)OCO5)CC3)s2)N2CCC[C@H]2C(N)=O)cc1 (stereo partly drawn)
[out] 25 to 100%

[in] Requested read-out: Emax. Entry: O=C(Nc1ncc([C@@H](O)c2ccccc2Cl)s1)C1(c2ccc3c(c2)OCO3)CC1
[out] > 100%

[in] Requested read-out: Emax. Entry: O=C1CC[C@@H](CO[C@H](c2cnc(NC(=O)C3(c4ccc5c(c4)OCO5)CC3)s2)c2ccccc2Cl)N1
[out] > 100%

[in] Requested read-out: Emax. Entry: CC(C)[C@@H](CO)NC(c1cnc(NC(=O)C2(c3ccc4c(c3)OCO4)CC2)s1)c1ccccc1Cl (stereo partly drawn)
[out] > 100%

----------
Biological target: ΔF508-CFTR (Homo sapiens, UniProt P13569, DEL508-508)
Construct: expressed in transfected cells
Assay: Membrane potential optical (FRET/VIPR) assay, identification of correction compounds
Type: cell-based
Details: Table 3; assay not given
endpoint: % Activity / % Efficacy (relative efficacy)

COc1ccc(C2(C(=O)Nc3ncc(C4(c5ccccc5OC)CC4)s3)CC2)cc1	+++ (“+++” means>100%)
COc1ccc(C2(C(=O)Nc3ncc(Cc4cnccc4OC)s3)CC2)cc1	+++ (“+++” means>100%)
O=C(Nc1nc2c(s1)-c1ccccc1CC2)C1(c2ccc3c(c2)OCO3)CC1	+++ (“+++” means>100%)

----------
Target: ΔF508-CFTR (Homo sapiens, UniProt P13569, DEL508-508)
Construct: expressed in transfected cells
Assay: Membrane potential optical (FRET/VIPR) assay, identification of correction compounds
Assay type: cell-based
Conditions: Table 3; assay not given
pEC50: −log10 of the molar value.
endpoint: pEC50

// known answers, use as guide
CC1(C)CC(NC(c2cnc(NC(=O)C3(c4ccc5c(c4)OCO5)CC3)s2)c2ccccc2Cl)CCO1 (centres unmarked)	> 5.00
CC(C)(C)[C@@H](CO)NC(c1cnc(NC(=O)C2(c3ccc4c(c3)OCO4)CC2)s1)c1ccccc1Cl (some centres unmarked)	4.60 to 5.00
O=C(Nc1ncc(C(c2ccccc2Cl)N2CC[C@@H](O)C2)s1)C1(c2ccc(C(F)(F)F)cc2)CC1 (some centres unmarked)	> 5.00
CCCN(CC1CC1)C(c1cnc(NC(=O)C2(c3ccc4c(c3)OCO4)CC2)s1)c1ccccc1Cl (centres unmarked)	> 5.00
CN1CCN(c2cccc(C3(C(=O)Nc4ncc(Cc5ccccc5Cl)s4)CC3)c2)CC1	> 5.00

[in] Requested read-out: pEC50. Entry: COc1ccc(C2(C(=O)Nc3ncc(C(c4ccccc4Cl)N4CC[C@@H](O)C4)s3)CC2)cc1OC (some centres unmarked)
[out] > 5.00

[in] Requested read-out: pEC50. Entry: COc1ccccc1Cc1cnc(NC(=O)C2(c3ccc(F)c(F)c3)CC2)s1
[out] > 5.00

[in] Requested read-out: pEC50. Entry: CCC(c1cnc(NC(=O)C2(c3ccc4c(c3)OCO4)CC2)s1)N1CCC(O)CC1 (centres unmarked)
[out] 4.60 to 5.00

[in] Requested read-out: pEC50. Entry: CC(C)(C)CCNC(c1cnc(NC(=O)C2(c3ccc4c(c3)OCO4)CC2)s1)c1ccccc1Cl (centres unmarked)
[out] > 5.00

[in] Requested read-out: pEC50. Entry: CS(=O)(=O)c1ccc(C2(C(=O)Nc3ncc(Cc4ccccc4Cl)s3)CC2)cc1
[out] > 5.00

[in] Requested read-out: pEC50. Entry: CCCc1nc(NC(=O)C2(c3ccc4c(c3)OCO4)CC2)sc1C(=O)OCC
[out] > 5.00

[in] Requested read-out: pEC50. Entry: COc1ccc(C(c2cnc(NC(=O)C3(c4ccc5c(c4)OCO5)CC3)s2)N2CCCCC2)cc1 (centres unmarked)
[out] > 5.00

[in] Requested read-out: pEC50. Entry: COc1ccc(C2(C(=O)Nc3nc(-c4ccc(Cl)c(Cl)c4)cs3)CC2)cc1
[out] 4.22 to 4.60

[in] Requested read-out: pEC50. Entry: O=C(Nc1nc(-c2ccc(Cl)cc2Cl)cs1)C1(c2ccc3c(c2)OCO3)CC1
[out] > 5.00

[in] Requested read-out: pEC50. Entry: COc1ccccc1C(c1cnc(NC(=O)C2(c3ccc4c(c3)OCO4)CC2)s1)N1CCCCC1 (centres unmarked)
[out] > 5.00

[in] Requested read-out: pEC50. Entry: CS(=O)(=O)c1ccc(C(c2cnc(NC(=O)C3(c4ccc5c(c4)OCO5)CC3)s2)N2CCC[C@H]2C(N)=O)cc1 (some centres unmarked)
[out] 4.60 to 5.00

[in] Requested read-out: pEC50. Entry: COc1ccc(CC2(C(=O)Nc3ncc(Cc4ccccc4Cl)s3)CC2)cc1
[out] > 5.00

[in] Requested read-out: pEC50. Entry: COc1ccc(C2(C(=O)Nc3ncc(Cc4ccc(F)cc4C)s3)CC2)cc1
[out] > 5.00

[in] Requested read-out: pEC50. Entry: COc1ccc(F)cc1Cc1cnc(NC(=O)C2(c3ccc4c(c3)OCO4)CC2)s1
[out] > 5.00

[in] Requested read-out: pEC50. Entry: O=C(Nc1ncc(C(Cc2ccccc2Cl)N2CCOCC2)s1)C1(c2ccc3c(c2)OCO3)CC1 (centres unmarked)
[out] > 5.00

----------
Biological target: ΔF508-CFTR (Homo sapiens, UniProt P13569, DEL508-508)
Assay: Membrane potential optical (FRET/VIPR) assay, identification of correction compounds
Conditions: Table 3; assay not given
pEC50: −log10 of the molar value.
endpoint: pEC50

// known answers, use as guide
COc1cccnc1Cc1cnc(NC(=O)C2(c3ccc4c(c3)OCO4)CC2)s1 [Example 266]	> 5.00
COc1ccccc1C(c1cnc(NC(=O)C2(c3ccc4c(c3)OCO4)CC2)s1)N1CCCC1 (centres unmarked) [Example 354]	> 5.00
O=C(Nc1ncc(C(c2ccccc2Cl)N2CC[C@@H](O)C2)s1)C1(c2cccc(F)c2)CC1 (some centres unmarked) [Example 447]	> 5.00
CCC[C@H](CO)NC(c1cnc(NC(=O)C2(c3ccc4c(c3)OCO4)CC2)s1)c1ccccc1Cl (some centres unmarked) [Example 489]	> 5.00
O=C1NOC[C@@H]1NC(c1cnc(NC(=O)C2(c3ccc4c(c3)OCO4)CC2)s1)c1ccccc1Cl (some centres unmarked) [Example 407]	4.60 to 5.00
O=C(Nc1ncc(Cc2ccccc2Cl)s1)C1(c2cccc(F)c2)CCCCC1 [Example 305]	> 5.00

[in] Requested read-out: pEC50. Entry: COCC1CCCN1C(c1ccccc1)c1cnc(NC(=O)C2(c3ccc4c(c3)OCO4)CC2)s1 (centres unmarked) [Example 355]
[out] > 5.00

[in] Requested read-out: pEC50. Entry: O=C(Nc1ncc(Cc2ccccc2Cl)s1)C1(c2cccc(O)c2)CC1 [Example 316]
[out] > 5.00
